Source of measurements: PubChem BioAssay (Tox21)

Assay Protocol: qHTS assay to identify small molecule agonists of the estrogen receptor beta (ER-beta) signaling pathway - cell viability counter screen (AID 1259380); also: nearly all actives have a fitted effect of over 30% in size
Test Parameters: ER-beta-bla HEK293T viability, CellTiter-Glo luminescence, 16 h; series mostly up to 92.4 µM
Inconclusive results are not listed. Activity calls are given as the source filed them. Calls follow the shape of the dose curve; as a rule, active = well fitted cell-killing curve with a large enough effect in the repeat runs; inconclusive = weak or mixed curves, or effect the other way; inactive = flat fitted curve, though single readings scatter.
Could you please pick one outcome from this set? active, inactive

Some solved entries appear below for comparison.
1. CC1(C)CCC[C@]2(C)[C@H]3CCO[C@]3(C)CC[C@@H]12 | inactive
2. O=[N+]([O-])c1ccc(F)c(Cl)c1 | inactive
3. CCN1C(=O)c2ccccc2C1Nc1ccc(OCCN2CCCCC2)cc1 (configuration not stated) | inactive
4. C=C(C)C(=O)OCCCCCCCCCC | inactive
5. Cc1ccc(C)cc1 | inactive

With those in mind, consider the next compound.
Test call, this compound: CCCC(=O)OCCc1ccccc1
inactive
